system: MV4-11; set-up: species or system AML cell lines (8); Primary HTS, single concentration about 10 uM, Cell Titer Glo viability; log10 luminescence, per cent inhibition relative to cycloheximide control; settings: 72 h, relative to cycloheximide control, log10 luminescence; inhibitor
Recorded MV4-11 %inh by entry

// worked examples, MV4-11 %inh included
> print(dat)
                                  structure  test.system  readout.name  observed.measurement
1   O=C1NC(=Nc2ccccc2)S/C1=C\c1ccc2ncccc2c1       MV4-11   MV4-11 %inh                2.663%
2                   CC(C)(S)[C@@H](N)C(=O)O       MV4-11   MV4-11 %inh               0.7087%
3  C=CCNC(=O)c1cc([N+](=O)[O-])cc2c(=O)[nH]c(Nc3ccc(Cl)c(Cl)c3)nc12       MV4-11   MV4-11 %inh                3.564%
4  OCCn1c(-c2ccncc2)c(-c2ccc(F)cc2)c2ncccc21       MV4-11   MV4-11 %inh                4.176%

Form field: MV4-11 %inh recorded for CCn1c(-c2nonc2N)nc2cnc(Oc3cccc(NC(=O)c4ccc(OCCN5CCOCC5)cc4)c3)cc21 with MV4-11 (enter value)
34.29%

Could you do the same for COc1ccc2cc(-c3c(-c4ccncc4)nc(-c4ccc(S(C)(=O)=O)cc4C)n3C)ccc2c1 , please?
2.69%

Follow-up entry: CCc1ccc(Oc2nccc(-c3c(-c4ccc(F)cc4)ncn3C3CCNCC3)n2)cc1
7.571%

* * *

system: CMK; design: species or system AML cell lines (8); Primary HTS, single concentration about 10 uM, Cell Titer Glo viability; log10 luminescence, per cent inhibition relative to cycloheximide control; conditions: 72 h, relative to cycloheximide control, log10 luminescence; inhibitor
Readings of CMK %inh for the listed compounds
Supply the numeric figure in %, leaving out any unit text.

Report CMK %inh for CC1(OC(=O)c2cccs2)C(=O)C=C2C=C3CCCN3C=C2C1=O (stereo not shown) [SJ000580493-1] please.
4.862

Request: COc1cc(Nc2ncc(-c3ccccc3)o2)cc(OC)c1OC [SJ000573009-1, U21834/26/1]
106.1

Check CC1=C(/C=C/C(C)=C/C=C/C(C)=C/C(=O)O)C(C)(C)CCC1O (stereo not shown) [SJ000561070-1, 4-HYDROXYRETINOIC ACID] too.
1.361

Now give it for C[C@]12CCC(=O)C=C1CC[C@@H]1[C@@H]2C(=O)C[C@@]2(C)[C@H]1CC[C@]2(O)C(=O)CO [SJ000287023-7, CORTISONE] too.
-2.132

* * *

experiment: Pharmacokinetics of ruxolitinib, single oral dose, plasma LC-MS/MS; format: in vivo, mice; settings: mouse, NSG, Male, 60 mg kg−1 oral gavage
READOUT_NAME: half-life
Provide the measurement as a number trailed by its unit.

Consider the compound N#CC[C@H](C1CCCC1)n1cc(-c2ncnc3[nH]ccc23)cn1 and give its measured half-life.
1.32 h

* * *

tested on: U937; design: species or system AML cell lines (8); Primary HTS, single concentration about 10 uM, Cell Titer Glo viability; log10 luminescence, per cent inhibition relative to cycloheximide control; details: 72 h, relative to cycloheximide control, log10 luminescence; inhibitor
READOUT_NAME: U937 %inh (%)
Give just the numeric value; % need not be written.

> print(dat)
                                   molecule  observed.measurement
1  Cn1cc(C2=C(c3cccnc3)C(=O)NC2=O)c2ccccc21 [SJ000581097-1]                -1.738
2  Cc1ccc(Nc2ccnc(Nc3cccc(C(N)=O)c3)n2)cc1O [SJ000573134-1, R4218/174/1]                -1.642
3  CNCCCn1cc(C2=C(c3cn(C)c4ccccc34)C(=O)NC2=O)c2ccccc21 [SJ000581176-1]                 9.304
4  COC(=O)Nc1nc2cc(Oc3ccc(NC(=O)Nc4ccccc4)cc3)ccc2[nH]1 [SJ000573165-1, T261/64/2]                 81.37

Provide the documented U937 %inh with U937 as the system for COc1ccc(-c2ccc3c(NC(=O)C4CC4)n[nH]c3n2)cc1 [SJ000573088-1, BS100048-058B1]
1.777

Ok, now Cc1nnc(C(C)C)n1[C@@H]1C[C@H]2CC[C@@H](C1)N2CC[C@H](NC(=O)C1CCC(F)(F)CC1)c1ccccc1 [SJ000555710-1, MARAVIROC]
-1.411

Another molecule: CCn1c(=O)c(Oc2ccc(F)cc2F)cc2cnc(NC3CCOCC3)nc21 [SJ000581151-1]
0.6844

Request: Cn1cc(C2=C(c3cn(C)c4cc(C(=O)O)ccc34)C(=O)NC2=O)c2ccccc21 [SJ000580970-1]
-0.7361

Sourced from paper PMC6522510
